For each record, write down the corresponding selectivity ratio.
Test: Selectivity index, ratio of IC50 for african green monkey Vero cells to IC50 for chloroquine-sensitive Plasmodium falciparum D6
Type: toxicity, cell-based
Conditions: read-out: Selectivity Index

Prompt: # lookup: selectivity ratio of "Br.Clc1ccc2c(N3CCNCCNCCNCC3)ccnc2c1"
Completion: > 154

Prompt: # lookup: selectivity ratio of "Clc1ccc2c(N3CCNCCN(c4ccnc5cc(Cl)ccc45)CCNCC3)ccnc2c1"
Completion: > 1330

----------
For each record, write down the corresponding selectivity ratio.
Test: Selectivity index, ratio of IC50 for african green monkey Vero cells to IC50 for chloroquine-resistant Plasmodium falciparum W2
Type: toxicity, cell-based
Settings: read-out: Selectivity Index

Prompt: # lookup: selectivity ratio of "Clc1ccc2c(N3CCNCCN(c4ccnc5cc(Cl)ccc45)CCNCC3)ccnc2c1"
Completion: > 521

Prompt: # lookup: selectivity ratio of "Br.Clc1ccc2c(N3CCNCCNCCNCC3)ccnc2c1"
Completion: > 48
